Reference source: PubChem BioAssay (NCATS)

Molecular target: Parathyroid hormone/parathyroid hormone-related peptide receptor (Homo sapiens) (UniProt Q03431)
Sequence (Q03431 whole entry, looked up): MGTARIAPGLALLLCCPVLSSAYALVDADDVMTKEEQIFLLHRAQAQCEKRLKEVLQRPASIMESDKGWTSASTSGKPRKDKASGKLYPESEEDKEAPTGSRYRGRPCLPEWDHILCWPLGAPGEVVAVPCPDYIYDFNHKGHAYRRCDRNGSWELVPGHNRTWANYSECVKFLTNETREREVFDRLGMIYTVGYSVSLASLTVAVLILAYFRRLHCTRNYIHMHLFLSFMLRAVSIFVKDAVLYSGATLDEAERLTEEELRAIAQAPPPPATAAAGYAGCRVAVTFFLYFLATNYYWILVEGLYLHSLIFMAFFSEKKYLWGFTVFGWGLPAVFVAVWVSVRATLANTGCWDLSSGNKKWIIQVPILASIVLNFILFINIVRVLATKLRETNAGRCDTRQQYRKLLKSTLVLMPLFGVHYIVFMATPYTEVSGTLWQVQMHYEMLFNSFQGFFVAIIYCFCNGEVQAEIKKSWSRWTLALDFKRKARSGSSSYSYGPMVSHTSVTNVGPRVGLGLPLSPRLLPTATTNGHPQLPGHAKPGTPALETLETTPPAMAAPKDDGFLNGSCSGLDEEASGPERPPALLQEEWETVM
Assay: qHTS for PTHR1 Agonists: Optimization Screen against the NCGC LOPAC library (AID 1347079);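 note: GloSensor cAMP luminescence in HEK-293 GP2 cells expressing human PTHR1 with IBMX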
Details: HEK293 GP2 PTHR1 GloSensor cAMP luminescence, 1 h; series mostly up to 57.1 µM
Excerpt: The goal of the proposed studies is to discover new compounds that act as potent agonists on the parathyroid hormone receptor type-1 (PTHR1). […] We performed an optimization assay of the quantitative high-throughput screening (qHTS) for the parathyroid hormone receptor type-1 (PTHR1) against the NCGC LOPAC library collection of […] compounds using a unique HEK-293-derived cell line (GP2) that expresses the PTHR1 and a GloSensor cAMP reporter construct. […]
Activity calls are given as the source filed them. Calls come from the whole dose curve; as a rule, active = well fitted activation curve with a large enough effect; inconclusive = small, poorly fitted or top-dose-only effect; inactive = no such curve, though single readings can be large or run the other way.
Hi there, use one of these labels in your reply, thanks! active, inactive

How was CCSC(=N)N classified in this test? inactive

How was COc1cc(C(O)C(=O)O)ccc1O (stereo not given) classified in this test? inactive

How was O=C(O)C1CN(CCCP(=O)(O)O)CCN1 (stereo not given) classified in this test? inactive
